Attribute: inhibition
subject of test: Ribosomal protein S6 kinase beta-1 (Homo sapiens) (UniProt P23443)
Sequence (P23443 whole entry, looked up): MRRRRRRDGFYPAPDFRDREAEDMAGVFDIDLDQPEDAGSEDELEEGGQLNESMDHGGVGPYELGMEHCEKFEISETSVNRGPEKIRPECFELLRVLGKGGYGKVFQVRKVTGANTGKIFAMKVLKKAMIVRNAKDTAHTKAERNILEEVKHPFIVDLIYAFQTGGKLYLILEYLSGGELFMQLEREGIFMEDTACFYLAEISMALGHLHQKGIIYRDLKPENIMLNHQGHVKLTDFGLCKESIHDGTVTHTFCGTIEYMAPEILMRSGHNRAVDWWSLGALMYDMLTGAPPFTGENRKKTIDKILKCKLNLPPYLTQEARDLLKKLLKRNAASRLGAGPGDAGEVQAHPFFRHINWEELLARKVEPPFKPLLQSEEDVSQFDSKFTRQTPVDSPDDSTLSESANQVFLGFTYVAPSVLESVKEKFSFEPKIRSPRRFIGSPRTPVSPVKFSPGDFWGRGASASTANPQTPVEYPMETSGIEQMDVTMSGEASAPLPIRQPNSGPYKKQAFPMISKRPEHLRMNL
run conditions: at 0.1 µM

Study these solved cases before continuing.
COc1cc(/C=N/Nc2ncnc3c2cnn3C(C)C)ccc1O; 1.17%
N#Cc1c(NC(=O)c2ccccc2F)sc2c1CCCC2; -0.91%
CS(=O)(=O)Nc1cccc(-c2ccc3c(NC(=O)C4CC4)n[nH]c3c2)c1; 1.15%
NS(=O)(=O)c1cccc(-c2cc3ccncc3cc2OCc2ccccc2)c1; 1.84%
CCn1c(-c2nonc2N)nc2ccc(F)cc21; 3.92%
O=S(=O)(CCOCc1ccc(-c2ccc3ncnc(Nc4ccc(OCc5cccc(F)c5)c(Cl)c4)c3c2)o1)c1ccccc1; -1.35%

Below: the item to evaluate.
*Q* Param readout= inhibition; system= Ribosomal protein S6 kinase beta-1 (Homo sapiens) (UniProt P23443); entry= OCc1ccc(-c2nc(-c3ccccn3)c(-c3ccc4c(c3)OCO4)[nH]2)cc1 ; returns value.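 Further: reported value is the mean inhibition of p70S6K1.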
*A* 2.09%

====

Attribute: inhibition
subject of test: Serine/threonine-protein kinase Nek7 (Homo sapiens)
run conditions: at 1 µM
Give the value in % but do not write % after it.

COc1cccc(-n2ncc3c(N/N=C/c4ccc(S(C)(=O)=O)cc4)ncnc32)c1; 2.28
NC(=O)c1sc(-n2cnc3ccccc32)cc1OCc1ccccc1Br; 9.69
Nc1nccc(-c2c(-c3ccc(F)cc3)nn3cc(C(F)(F)F)ccc23)n1; 0.7

*Q* Look at this molecule and give its reported inhibition. CCn1c(-c2nonc2N)nc2c(C#CC(C)(C)O)nc(OCCNC)cc21
*A* 9.15

*Q* Look at this molecule and give its reported inhibition. CN(c1ccc(NC(=O)Nc2ccc(OC(F)(F)F)cc2)cc1)c1ccnc(Nc2cccc(S(N)(=O)=O)c2)n1
*A* -1.48

*Q* Look at this molecule and give its reported inhibition. O=C1Nc2ccccc2/C1=C/Nc1ccc2[nH]c(=O)[nH]c2c1
*A* 4.96

*Q* Look at this molecule and give its reported inhibition. Oc1cccc(-c2nc(-c3ccccc3)[nH]c2-c2ccncc2)c1
*A* 5.32

*Q* Look at this molecule and give its reported inhibition. O=C1Nc2ccc(-c3cccnc3)cc2C1=Cc1cc(Br)c(O)c(Br)c1
*A* 4.87

====

subject of test: Dual specificity protein kinase CLK2 (Homo sapiens) (UniProt P49760)
Sequence (P49760 whole entry, looked up): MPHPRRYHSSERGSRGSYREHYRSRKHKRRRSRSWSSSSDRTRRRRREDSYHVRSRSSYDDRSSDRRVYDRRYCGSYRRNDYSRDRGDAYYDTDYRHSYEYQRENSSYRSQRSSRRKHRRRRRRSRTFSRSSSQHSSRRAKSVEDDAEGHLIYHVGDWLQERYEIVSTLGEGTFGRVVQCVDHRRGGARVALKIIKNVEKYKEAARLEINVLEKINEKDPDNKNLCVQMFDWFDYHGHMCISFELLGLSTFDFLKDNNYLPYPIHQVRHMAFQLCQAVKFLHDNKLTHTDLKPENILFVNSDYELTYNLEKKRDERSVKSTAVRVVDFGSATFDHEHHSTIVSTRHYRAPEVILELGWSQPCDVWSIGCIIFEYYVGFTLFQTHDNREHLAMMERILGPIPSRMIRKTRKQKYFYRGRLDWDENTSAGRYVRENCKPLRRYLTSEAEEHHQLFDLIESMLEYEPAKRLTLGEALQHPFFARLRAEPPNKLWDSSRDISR
run conditions: at 1 µM
observation type: inhibition (%)
Give the value in % but do not write % after it.

Study these solved cases before continuing.
Cc1ccc(Nc2ccnc(Nc3cccc(C(N)=O)c3)n2)cc1O; 6.94
NS(=O)(=O)c1ccc(N/N=C2\C(=O)Nc3ccc(Cl)cc32)cc1; 2.45
O=C1Nc2ccc(-c3cccnc3)cc2C1=Cc1cc(Br)c(O)c(Br)c1; 84.6
CS(=O)(=O)Nc1cccc(-c2ccc3c(NC(=O)C4CC4)n[nH]c3c2)c1; 3.81

*Q* Look at this compound and give its reported inhibition. CCCN1CCCC(c2ccc(Nc3nc(Nc4cc(F)ccc4C(N)=O)c4cc[nH]c4n3)c(OC)c2)C1 (stereo not given)
*A* 93.8

*Q* Look at this compound and give its reported inhibition. OCc1ccc(-c2nc(-c3ccccn3)c(-c3ccc4c(c3)OCO4)[nH]2)cc1
*A* 4.27

*Q* Look at this compound and give its reported inhibition. CN1CCN(C(=O)c2ccc(NC(=O)Nc3ccc(N(C)c4ccnc(Nc5ccc(CS(C)(=O)=O)cc5)n4)cc3)cc2)CC1
*A* 3.57

*Q* Look at this compound and give its reported inhibition. CC(C)c1ccc2c(c1)NC(=O)/C2=N/Nc1ccc(S(N)(=O)=O)cc1
*A* -1.61

*Q* Look at this compound and give its reported inhibition. CN(C)CCCn1c(-c2nonc2N)nc2cnccc21
*A* 2.51

*Q* Look at this compound and give its reported inhibition. NC(=O)c1sc(-n2cnc3ccccc32)cc1OCc1ccccc1Br
*A* 5.2
